Hey, just so you know, these numbers are from patent US10508085B2.

Each entry below lists one item and its recorded IC50 value.
Molecular target: human IDO (IDO1-expressing HEK293 cells) (Homo sapiens, UniProt P14902)
Construct: expressed in transfected cells
Sequence (P14902 whole entry): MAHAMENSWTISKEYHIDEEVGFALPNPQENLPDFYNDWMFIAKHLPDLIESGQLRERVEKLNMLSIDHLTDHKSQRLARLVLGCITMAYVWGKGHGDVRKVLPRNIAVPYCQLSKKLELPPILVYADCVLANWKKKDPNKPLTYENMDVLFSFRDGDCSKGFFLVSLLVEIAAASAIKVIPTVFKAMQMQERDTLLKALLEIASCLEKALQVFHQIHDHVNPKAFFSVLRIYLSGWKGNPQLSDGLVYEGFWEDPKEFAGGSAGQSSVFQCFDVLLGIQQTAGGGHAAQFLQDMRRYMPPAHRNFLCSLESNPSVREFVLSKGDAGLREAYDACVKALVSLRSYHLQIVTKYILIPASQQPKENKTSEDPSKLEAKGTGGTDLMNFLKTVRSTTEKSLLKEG
Assay: Cell based kynurenine assay, IDO1-expressing HEK293 cell clones
Details: IDO1-expressing HEK293 cells, 24 hours incubation; geometric mean; read-out: HEK293 IDO1 Kynurenine GMean IC50 (μM) (Cellular Assay)

MOLECULE | IC50
CC(C)(C)C(O)c1cc(Cl)cc2cn[nH]c12 (centres unmarked) [Compound P-0212] | 0.0001 to 10 µM
COc1ccc(NC(=O)N2CCC(C(C)(C)C(O)c3cc(Cl)cc4cn[nH]c34)CC2)cc1 (centres unmarked) [Compound P-0183] | 0.0001 to 10 µM
CC(C)(C)OC(=O)N1CC2CCC(C1)C2CC(O)c1cc(Cl)cc2cn[nH]c12 (centres unmarked) [Compound P-0273] | 0.0001 to 10 µM
CC(C)(C1CCN(C(=O)N2CCOCC2)CC1)C(O)c1cc(Cl)cc2cn[nH]c12 (centres unmarked) [Compound P-0391] | 0.0001 to 10 µM
CC(C)(C)OC(=O)N1CCC(C(C)(C)[C@@H](O)c2cc(Cl)cc3cn[nH]c23)CC1 [Compound P-0338] | > 10 µM
CCC(=O)N1CCC(C(F)(F)C(O)c2c(F)c(Cl)cc3cn[nH]c23)CC1 (centres unmarked) [Compound P-0374] | 0.0001 to 10 µM
CCCNC(=O)N1CCC(C(C)(C)C(O)c2cc(Cl)cc3cn[nH]c23)CC1 (centres unmarked) [Compound P-0355] | 0.0001 to 10 µM
OC(c1cc(Cl)cc2cn[nH]c12)C12CCC(C(F)F)(CC1)CC2 (centres unmarked) [Compound P-0269] | 0.0001 to 10 µM
OC(c1cc(Cl)cc2cn[nH]c12)C1CC(F)(F)C1 (centres unmarked) [Compound P-0017] | 0.0001 to 10 µM
CC1(C)CN(c2cc(Cl)c(F)c3cn[nH]c23)CCN1S(C)(=O)=O [Compound P-0097] | 0.0001 to 10 µM
CC(C)(C1CCN(C(=O)c2ccccn2)CC1)C(O)c1cc(Cl)cc2cn[nH]c12 (centres unmarked) [Compound P-0365] | 0.0001 to 10 µM
OC1(c2cc(Cl)cc3[nH]ncc23)CC2(CCC2)C1 [Compound P-0336] | > 10 µM
OC(c1cc(Cl)cc2cn[nH]c12)C1(C(F)(F)F)CCC1 (centres unmarked) [Compound P-0120] | 0.0001 to 10 µM
OC(c1cccc2cncn12)C1CCCCCCC1 (centres unmarked) [Compound P-0063] | > 10 µM
CCC(CC)C(O)c1cc(Cl)cc2cn[nH]c12 (centres unmarked) [Compound P-0268] | 0.0001 to 10 µM
OC1(c2cc(Cl)cc3cn[nH]c23)CC2(C1)C1CC3CC(C1)CC2C3 (centres unmarked) [Compound P-0113] | 0.0001 to 10 µM
CC(C)(C1CCN(C2CC2)CC1)C(O)c1cc(Cl)cc2cn[nH]c12 (centres unmarked) [Compound P-0319] | 0.0001 to 10 µM

====

Biological target: human TDO (TDO-expressing HEK293 cells) (Homo sapiens, UniProt P48775)
Construct: expressed in transfected cells
Test: Cell based kynurenine assay, TDO-expressing HEK293 cell clones
Conditions: TDO-expressing HEK293 cells, 24 hours incubation; geometric mean; read-out: HEK293 TDO Kynurenine GMean IC50 (μM) (Cellular Assay)

MOLECULE | IC50
OC(c1cccc2cncn12)C1CC2CCC1C2 (centres unmarked) [Compound P-0059] | > 10 µM
CC(C)(CN1CCCC1)C(O)c1cc(Cl)cc2cn[nH]c12 (centres unmarked) [Compound P-0202] | > 10 µM
CNC(=O)N1CCC(C(F)(F)C(O)c2cc(Cl)cc3cn[nH]c23)CC1 (centres unmarked) [Compound P-0142] | 0.0001 to 10 µM
O=S(=O)(C1CC1)N1CCC2(CC1)CC(O)(c1cc(Cl)cc3cn[nH]c13)C2 [Compound P-0035] | 0.0001 to 10 µM
O[C@@H](c1cc(Cl)cc2cn[nH]c12)C12CCC(CC1)CC2 [Compound P-0382] | > 10 µM

====

Target: Human Tryptophan 2,3-dioxygenase (TDO) (Homo sapiens)
Construct: His tag (N); made in house; host or cells: E. coli
Sequence (P48775 whole entry): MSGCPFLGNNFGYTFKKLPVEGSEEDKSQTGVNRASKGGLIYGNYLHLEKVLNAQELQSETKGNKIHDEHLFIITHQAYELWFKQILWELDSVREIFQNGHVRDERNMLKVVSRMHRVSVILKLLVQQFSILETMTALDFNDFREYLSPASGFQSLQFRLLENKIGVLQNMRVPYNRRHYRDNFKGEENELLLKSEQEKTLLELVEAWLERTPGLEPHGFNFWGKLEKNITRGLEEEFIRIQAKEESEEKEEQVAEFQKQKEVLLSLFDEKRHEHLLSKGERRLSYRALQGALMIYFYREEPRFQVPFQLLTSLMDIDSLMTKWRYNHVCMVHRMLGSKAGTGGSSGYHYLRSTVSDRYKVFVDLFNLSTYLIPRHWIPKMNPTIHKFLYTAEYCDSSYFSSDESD
Assay: Human TDO enzymatic assay (kynurenine level)
Type: biochemical
Settings: 1 nM TDO, 350 μM L-Trp; geometric mean; read-out: TDO GMean: IC50 (μM) (Biochemical Assay)
VALUE KIND: IC50

COMPOUND | VALUE KIND | OBSERVED
CC(C)(C1CCN(C(=O)CN2CCOCC2)CC1)C(O)c1cc(Cl)cc2cn[nH]c12 (stereo not shown) | IC50 | 0.0001 to 10 µM
CCOC(=O)N1CCC(C(C)(C)[C@H](O)c2cc(Cl)cc3cn[nH]c23)CC1 | IC50 | 0.0001 to 10 µM
NC(=O)N1CCC(C(F)(F)C(O)c2cc(Cl)cc3cn[nH]c23)CC1 (stereo not shown) | IC50 | 0.0001 to 10 µM
CCCOc1ccc(C(O)c2cccc3cncn23)cc1 (stereo not shown) | IC50 | 10 to 100 µM

====

Each entry below lists one item and its recorded IC50 value.
Biological target: Human Indoleamine 2,3-dioxygenase (IDO) (Homo sapiens)
Construct: His tag (N); made in house; host or cells: E. coli
Sequence (P14902 whole entry): as the sequence (P14902 whole entry) above
Assay: Human IDO enzymatic assay (kynurenine level)
Format: biochemical
Details: 6 nM IDO, 10 μM L-Trp; geometric mean; read-out: IDO1 GMean: IC50 (μM) (Biochemical Assay)
VALUE KIND: IC50

COMPOUND | TARGET OR SYSTEM | VALUE KIND | OBSERVED
OC(c1cccnc1)c1cc(Cl)cc2cn[nH]c12 (centres unmarked) [Compound P-0001] | Human Indoleamine 2,3-dioxygenase (IDO) (Homo sapiens) | IC50 | 0.0001 to 10 µM
CN(C)C(C)(C)C(O)c1cc(Cl)cc2cn[nH]c12 (centres unmarked) [Compound P-0230] | Human Indoleamine 2,3-dioxygenase (IDO) (Homo sapiens) | IC50 | 10 to 100 µM
O=C(Cc1ccc(Cl)nc1)N1CCC(C(F)(F)C(O)c2cc(Cl)cc3cn[nH]c23)CC1 (centres unmarked) [Compound P-0495] | Human Indoleamine 2,3-dioxygenase (IDO) (Homo sapiens) | IC50 | 0.0001 to 10 µM
CC(C)(C1CCN(C(=O)CO)CC1)C(O)c1cc(Cl)cc2cn[nH]c12 (centres unmarked) [Compound P-0461] | Human Indoleamine 2,3-dioxygenase (IDO) (Homo sapiens) | IC50 | 0.0001 to 10 µM
CS(=O)(=O)N1CCC(C2(C(O)c3cc(Cl)cc4cn[nH]c34)CC2)CC1 (centres unmarked) [Compound P-0158] | Human Indoleamine 2,3-dioxygenase (IDO) (Homo sapiens) | IC50 | 0.0001 to 10 µM
OC1(c2cc(Cl)cc3[nH]ncc23)CC2(CCCCC2)C1 [Compound P-0371] | Human Indoleamine 2,3-dioxygenase (IDO) (Homo sapiens) | IC50 | 10 to 100 µM
CC(C)(C1CCCC1)C(O)c1c(F)c(Cl)c(F)c2cn[nH]c12 (centres unmarked) [Compound P-0252] | Human Indoleamine 2,3-dioxygenase (IDO) (Homo sapiens) | IC50 | 0.0001 to 10 µM
CC(C)(C)NC(=O)N1CCC(C(C)(C)C(O)c2cc(Cl)cc3cn[nH]c23)CC1 (centres unmarked) [Compound P-0356] | Human Indoleamine 2,3-dioxygenase (IDO) (Homo sapiens) | IC50 | 0.0001 to 10 µM
CC(C)(C1CCN(C(=O)CC2CCS(=O)(=O)CC2)CC1)C(O)c1cc(Cl)cc2cn[nH]c12 (centres unmarked) [Compound P-0448] | Human Indoleamine 2,3-dioxygenase (IDO) (Homo sapiens) | IC50 | 0.0001 to 10 µM
CC(C)(C1CCN(C(=O)NC2CC(F)(F)C2)CC1)[C@H](O)c1cc(Cl)cc2cn[nH]c12 [Compound P-0592] | Human Indoleamine 2,3-dioxygenase (IDO) (Homo sapiens) | IC50 | 0.0001 to 10 µM
OC(c1c(F)c(Cl)cc2cn[nH]c12)C(F)(F)C1(O)CCC1 (centres unmarked) [Compound P-0290] | Human Indoleamine 2,3-dioxygenase (IDO) (Homo sapiens) | IC50 | 0.0001 to 10 µM
OC(c1cc(Cl)cc2cn[nH]c12)C(F)(F)C1CCOCC1 (centres unmarked) [Compound P-0192] | Human Indoleamine 2,3-dioxygenase (IDO) (Homo sapiens) | IC50 | 0.0001 to 10 µM
OC(c1ccccc1C(F)(F)F)c1cccc2cncn12 (centres unmarked) [Compound P-0067] | Human Indoleamine 2,3-dioxygenase (IDO) (Homo sapiens) | IC50 | 100 to 200 µM
O=C(Nc1ccc(Cl)cc1)N1CCC(C(F)(F)C(O)c2cc(Cl)cc3cn[nH]c23)CC1 (centres unmarked) [Compound P-0484] | Human Indoleamine 2,3-dioxygenase (IDO) (Homo sapiens) | IC50 | 0.0001 to 10 µM
CC(C)(C1CCN(C(=O)c2ccccc2C(F)(F)F)CC1)C(O)c1cc(Cl)cc2cn[nH]c12 (centres unmarked) [Compound P-0366] | Human Indoleamine 2,3-dioxygenase (IDO) (Homo sapiens) | IC50 | 0.0001 to 10 µM
Cc1cccc(NC(=O)N2CCC(C(C)(C)C(O)c3cc(Cl)cc4cn[nH]c34)CC2)c1 (centres unmarked) [Compound P-0181] | Human Indoleamine 2,3-dioxygenase (IDO) (Homo sapiens) | IC50 | 0.0001 to 10 µM
COCCNC(=O)N1CCC(C(F)(F)[C@H](O)c2c3c(cc4cn[nH]c24)CC3)CC1 [Compound P-0630] | Human Indoleamine 2,3-dioxygenase (IDO) (Homo sapiens) | IC50 | 0.0001 to 10 µM
